# Tested on: Setaria fabenr (SETFA)
# test description: B1 Pre-emergence herbicidal activity
# Format: in vivo
# Set-up: key: 5=total damage to plant; 0=no damage to plant
# condition summary: pre-emergence application, rate 1000 g/ha, evaluated after 13 days
endpoint label: Pre-emergence herbicidal activity, SETFA (damage score 0-5)

{"cpd smiles": "O=C(Nc1ccc(-c2cncc(F)c2)nc1C(F)(F)F)C(Cl)(Cl)Cl", "recorded value": 5}
{"cpd smiles": "COCC(=O)N(Cc1cnc(Cl)s1)c1ccc(-c2cncc(F)c2)nc1C(F)(F)F", "recorded value": 4}
{"cpd smiles": "O=C1CCCCN1c1ccc(-c2cncc(F)c2)nc1C(F)(F)F", "recorded value": 3}
{"cpd smiles": "O=C1CCC(=O)N1c1ccc(-c2cncnc2)nc1C(F)(F)F", "recorded value": 4}
{"cpd smiles": "COCCC(=O)Nc1ccc(-c2cncc(F)c2)nc1C(F)(F)F", "recorded value": 5}
{"cpd smiles": "O=C(c1ccccc1)N(Cc1ccc(Cl)cc1)c1ccc(-c2cncc(F)c2)nc1C(F)(F)F", "recorded value": 1}
{"cpd smiles": "CC(C)C(=O)Nc1ccc(-c2cncc(Cl)c2)nc1C(F)(F)F", "recorded value": 4}
{"cpd smiles": "CC(=O)N(C(C)=O)c1ccc(-c2cncc(F)c2)nc1C(F)(F)F", "recorded value": 5}
{"cpd smiles": "CCC(=O)Nc1ccc(-c2cncc(F)c2)nc1C(F)(F)F", "recorded value": 5}
{"cpd smiles": "CC(C)=CC(=O)Nc1ccc(-c2cncc(F)c2)nc1C(F)(F)F", "recorded value": 5}
{"cpd smiles": "CCOC(=O)CC(=O)Nc1ccc(-c2cncc(F)c2)nc1C(F)(F)F", "recorded value": 4}
{"cpd smiles": "CC(C)C(=O)Nc1ccc(-c2cncc(C#N)c2)nc1C(F)(F)F", "recorded value": 4}
{"cpd smiles": "CC(C)CN(C(=O)C(C)C)c1ccc(-c2cncc(F)c2)nc1C(F)(F)F", "recorded value": 1}
{"cpd smiles": "O=C(Nc1ccc(-c2cncc(F)c2)nc1C(F)(F)F)c1cccs1", "recorded value": 4}
{"cpd smiles": "COCC(=O)N(CC=C(C)C)c1ccc(-c2cncc(F)c2)nc1C(F)(F)F", "recorded value": 4}
{"cpd smiles": "Cc1nc(-c2cncc(F)c2)ccc1NC(=O)C(C)C", "recorded value": 5}
{"cpd smiles": "CCC(=O)N(COCC(F)(F)F)c1ccc(-c2cncc(F)c2)nc1C(F)(F)F", "recorded value": 4}
{"cpd smiles": "CSCCN(C(=O)C(C)C)c1ccc(-c2cncc(F)c2)nc1C(F)(F)F", "recorded value": 2}
{"cpd smiles": "CC(C)=CC(=O)N(C(=O)C=C(C)C)c1ccc(-c2cncc(F)c2)nc1C(F)(F)F", "recorded value": 5}
{"cpd smiles": "O=C(Nc1ccc(-c2cncc(F)c2)nc1C(F)(F)F)c1ccccc1F", "recorded value": 4}
{"cpd smiles": "O=C(Nc1ccc(-c2cncc(F)c2)nc1C(F)(F)F)c1c(F)cccc1F", "recorded value": 5}
{"cpd smiles": "CCC(=O)N(CCC(F)F)c1ccc(-c2cncc(F)c2)nc1C(F)(F)F", "recorded value": 4}
{"cpd smiles": "COCC(=O)N(CC1CC1)c1ccc(-c2cncc(F)c2)nc1C(F)(F)F", "recorded value": 3}
{"cpd smiles": "CCC(=O)N(Cc1cnc(Cl)s1)c1ccc(-c2cncc(F)c2)nc1C(F)(F)F", "recorded value": 4}
{"cpd smiles": "COC(=O)CCC(=O)N(C(=O)CCC(=O)OC)c1ccc(-c2cncc(F)c2)nc1C(F)(F)F", "recorded value": 5}
{"cpd smiles": "CC(C)C(=O)N(CC(=O)N(C)C)c1ccc(-c2cncc(F)c2)nc1C(F)(F)F", "recorded value": 5}
{"cpd smiles": "O=C(Nc1ccc(-c2cncc(F)c2)nc1C(F)(F)F)C(Cl)Cl", "recorded value": 5}
{"cpd smiles": "O=C1CCC(=O)N1c1ccc(-c2cncc(F)c2)nc1C(F)(F)F", "recorded value": 2}
{"cpd smiles": "CC(C)C(=O)N(CC#N)c1ccc(-c2cncc(F)c2)nc1C(F)(F)F", "recorded value": 5}
{"cpd smiles": "O=C(CCC1CCCC1)Nc1ccc(-c2cncc(F)c2)nc1C(F)(F)F", "recorded value": 4}
{"cpd smiles": "O=C(Nc1ccc(-c2cncc(F)c2)nc1C(F)(F)F)C1CCCCC1", "recorded value": 5}
{"cpd smiles": "COCC(=O)N(CC(C)C)c1ccc(-c2cncc(F)c2)nc1C(F)(F)F", "recorded value": 5}
{"cpd smiles": "O=C(Nc1ccc(-c2cncnc2)nc1C(F)(F)F)C1CC1", "recorded value": 4}
{"cpd smiles": "COCC(=O)Nc1ccc(-c2cncc(F)c2)nc1C(F)(F)F", "recorded value": 5}
{"cpd smiles": "CCC(=O)Nc1ccc(-c2cncnc2)nc1C#N", "recorded value": 5}
{"cpd smiles": "CCC(=O)N(CC#N)c1ccc(-c2cncc(F)c2)nc1C(F)(F)F", "recorded value": 4}

Recorded values, source patent US11230538B2.
